Target system: αIIbβ3 (Homo sapiens)
Procedure summary: BLI
Readout: Kd

B8_BP-LATY (designed binder, full-length mature chains taken as on K562 cells; soluble ectodomain possible for BLI; divalent cations, glycosylated) TKCVVRFNFRGDLATYALKAVKDHLKKEGPHWNITTHNDDEVYLVVRGIHESDAKRIAKWVESTIPGISVETQCD: > 1000 nM
B6_BP_dslf (designed binder, full-length mature chains taken as on K562 cells; soluble ectodomain possible for BLI; divalent cations, glycosylated) TKCVVRFVFRGDLAELMLRAVKDHLKKEGPHWNITSTNNGKELVVRGIHESDAKRIAKWVEKRFPRVHTETQCD: > 200 nM
